- experiment.description: ATG_PXRE_CIS: Attagene CIS-FACTORIAL HepG2 Assay for human Pregnane X Receptor Element (PXRE) (AID 2282957)
- condition.context: HepG2 Attagene CIS-FACTORIAL PXRE reporter, mRNA; actives raise or lower the signal
Calls of active or inactive are those of the source. How the source made its calls: active means hit-call score of the fitted dose curve at least 0.9, where 1 is the maximum; inactive means score below 0.9.
value.type: AC50

Known AC50 results, listed for orientation:
- molecule: "C=C(C)C(=O)OCCOc1ccccc1"
  AC50: "68.5 µM (active)"
- molecule: "CC(C)(c1cc(Br)c(OCCO)c(Br)c1)c1cc(Br)c(OCCO)c(Br)c1"
  AC50: "0.484 µM (active)"
- molecule: "CCCCCCCCCCOS(=O)(=O)O"
  AC50: "inactive"
- molecule: "Cc1cccc(OCCOc2cccc(C)c2)c1"
  AC50: "inactive"
- molecule: "CC/C=C\\C/C=C\\C/C=C\\CCCCCCCC(=O)O"
  AC50: "181 µM (active)"
- molecule: "O=C1C=CC(=O)O1"
  AC50: "inactive"

Dear colleague, could you please provide AC50 for the molecules listed below?
1. CCCCCCC1(C)CCC(=O)O1 (stereo unspecified)
2. CC1=Nc2ccc3ccccc3c2C1(C)C
3. c1ccc(-c2ccccn2)nc1
4. CC(C)(C)c1ccc(OC(=O)c2ccccc2O)cc1
5. Nc1ccc(-c2ccc(F)cc2)cc1
6. O=C(C=Cc1ccccc1)OCc1ccccc1
7. OCCCS
8. CC=C1CC2C=CC1C2 (stereo unspecified)

1: 30.3 µM (active); 2: 1.78 µM (active); 3: inactive; 4: 15.3 µM (active); 5: 27.4 µM (active); 6: 13.2 µM (active); 7: inactive; 8: 3.1 µM (active)

Dear colleague, could you please provide AC50 for the molecules listed below?
1. C[Si](C)O[Si](C)(C)O[Si](C)(C)O[Si](C)C
2. CNC(=S)N(C)C
3. O=[N+]([O-])C1(Br)COCOC1
4. OC1CCCC1
5. c1ccc(CCCc2ccncc2)cc1
6. CC(=O)OC1C2(C)CCC(C2)C1(C)C (stereo unspecified)

["17 µM (active)", "inactive", "inactive", "48.8 µM (active)", "27 µM (active)", "inactive"]

Dear colleague, could you please provide AC50 for the molecules listed below?
1. CC(=O)c1ccc[nH]1
2. CCCCCCC(O)CO (stereo unspecified)
3. CC1(C)O[C@@H]2C[C@H]3[C@@H]4C[C@H](F)C5=CC(=O)C=C[C@]5(C)[C@@]4(F)[C@@H](O)C[C@]3(C)[C@]2(C(=O)CO)O1
4. CCC(CO)CO
5. CCCCCCCCC(=O)OCC

1: inactive; 2: inactive; 3: 6.12 µM (active); 4: inactive; 5: inactive

Dear colleague, could you please provide AC50 for the molecules listed below?
1. C=CC(=O)OCC(Br)CBr (stereo unspecified)
2. CCCCCCCCCCCCCCCC[N+](C)(C)CC
3. COCCOCCOCCOCCOC
4. C=C[Si](C)(C)O[Si](C)(C)C=C
5. Nc1cccc(C(F)(F)F)c1
6. CCOC(=O)[C@H](C)O

1. inactive
2. inactive
3. inactive
4. 27.9 µM (active)
5. inactive
6. 27.2 µM (active)

----------
- Read-out: Plasminogen activator inhibitor-1 (PAI1), SERPINE1 (gene 5054)
- experiment.description: BSK_BE3C_PAI1: BioMAP Diversity Plus: BE3C Assay for Plasminogen activator inhibitor-1 (PAI1) Biomarker Activity (AID 2283037)
- condition.context: primary human bronchial epithelial cells; actives raise or lower the signal
The source made the active and inactive calls. The calls were made as follows: active = hit-call score of the fitted dose curve at least 0.9, where 1 is the maximum; inactive = score below 0.9.
Write down one outcome, taken from active, inactive

See these solved cases before continuing.
- molecule: "CCCCC(CC)COCC1CO1 (configuration not stated)"
  category: "inactive"
- molecule: "CCOC(=O)c1ccccc1C(=C1C=C(Br)C(=O)C(Br)=C1)c1cc(Br)c(O)c(Br)c1"
  category: "active"
- molecule: "C=CCOCC(O)CCl (configuration not stated)"
  category: "inactive"
- molecule: "CCCCNc1ccc(NCCCC)c2c1C(=O)c1ccccc1C2=O"
  category: "inactive"
- molecule: "CO[Si](OC)(OC)c1ccccc1"
  category: "inactive"

Would you mind telling me which call this test gave `CC(C)(c1cc(Br)c(OCCO)c(Br)c1)c1cc(Br)c(OCCO)c(Br)c1` ?
inactive

Would you mind telling me which call this test gave `COc1ccc2nc(N)sc2c1` ?
inactive

Would you mind telling me which call this test gave CC1OC1C1CCC2(C)OC2C1 (configuration not stated) ?
inactive

Would you mind telling me which call this test gave `COCc1c(C(C)C)nc(C(C)C)c(/C=C/[C@@H](O)C[C@@H](O)CC(=O)O)c1-c1ccc(F)cc1` ?
inactive

Would you mind telling me which call this test gave `CCCCCCCCCCCCCCCC[N+](C)(C)CC` ?
active

Would you mind telling me which call this test gave `O=C(Nc1ccccc1SSc1ccccc1NC(=O)c1ccccc1)c1ccccc1` ?
inactive

----------
- experiment.description: ATG_M_19_CIS: Attagene CIS-FACTORIAL HepG2 Assay for M19 Transcription Factor (Internal Marker) (AID 2282939)
- condition.context: HepG2 Attagene CIS-FACTORIAL M19 internal marker reporter; actives raise or lower the signal
Active and inactive are the calls of the source. How the source made its calls: active means hit-call score of the fitted dose curve at least 0.9, where 1 is the maximum; inactive means score below 0.9.
value.type: outcome

Known outcome results, listed for orientation:
- structure: "CC(=O)Nc1ccc2c(c1)Cc1cc(NC(C)=O)ccc1-2"
  observed.value: "inactive"
- structure: "Cc1cccc(OCCOc2cccc(C)c2)c1"
  observed.value: "inactive"
- structure: "C=C(C)[C@H]1CC=C(C)CC1"
  observed.value: "inactive"
- structure: "CC(C)(C)c1ccc(-c2ccc(C(C)(C)C)cc2)cc1"
  observed.value: "inactive"
- structure: "CC(C)C1=CC2=CC[C@@H]3[C@](C)(CCC[C@@]3(C)C(=O)O)[C@H]2CC1"
  observed.value: "inactive"

Dear colleague, could you please provide outcome for the compounds listed below?
1. [Cl][Bi]([Cl])([c]1ccccc1)([c]1ccccc1)[c]1ccccc1
2. CCOC(=O)Cc1cccc2ccccc12
3. C=CCOc1c(Br)cc(Br)cc1Br
4. CC(=O)OCc1ccco1
5. CC(C)CCCCCOC(=O)CCS
6. C=C(C)C(=O)OCCOc1ccccc1
7. c1ccc(CNCc2ccccc2)cc1
8. C=C(C)c1cccc(C(C)(C)N=C=O)c1

inactive
inactive
inactive
inactive
inactive
inactive
inactive
inactive

What value of measured outcome is listed for `OCCc1ccncc1` ?
inactive

----------
- Read-out: Monocyte Chemoattractant Protein-1 (MCP1), CCL2 (gene 6347)
- experiment.description: BSK_LPS_MCP1: BioMAP Diversity Plus: LPS Assay for Monocyte Chemoattractant Protein-1 (MCP1) Biomarker Activity (AID 2283081)
- condition.context: primary human HUVEC with PBMC; actives raise or lower the signal
Active and inactive are the calls of the source. Rule for the calls: active = hit-call score of the fitted dose curve at least 0.9, where 1 is the maximum; inactive = score below 0.9.
Write down one outcome, taken from label 1 = active, label 0 = inactive

- molecule: "CN1C(=O)N(C)C(O)C1O (configuration not stated)"
  category: "label 0"
- molecule: "O=Nc1ccc(O)cc1"
  category: "label 0"
- molecule: "O=C(Nc1ccccc1SSc1ccccc1NC(=O)c1ccccc1)c1ccccc1"
  category: "label 0"

Alright, here's another molecule for you.
Would you mind telling me which call this test gave `COCc1c(C(C)C)nc(C(C)C)c(/C=C/[C@@H](O)C[C@@H](O)CC(=O)O)c1-c1ccc(F)cc1` ?
label 0

----------
- system.under.test: Cellular tumor antigen p53 (Homo sapiens)
- experiment.description: TOX21_p53_BLA_p4_ratio: Tox21 HCT-116 p53 Agonism Beta-lactamase Assay, Ratio, Phase 4 (AID 2283601)
Inconclusive results are not listed. Activity calls are given as the source filed them. How the source made its calls: active means hit-call score of the fitted dose curve at least 0.9, where 1 is the maximum; inconclusive means response in the unintended direction; inactive means score below 0.9.
Write down one outcome, taken from 1 (active), -1 (inactive)

See these solved cases before continuing.
- molecule: "Nc1ccc(-c2ccc(F)cc2)cc1"
  system.under.test: "Cellular tumor antigen p53 (Homo sapiens)"
  category: -1
- molecule: "COC(=O)c1c(C)cc(O)c(C)c1O"
  system.under.test: "Cellular tumor antigen p53 (Homo sapiens)"
  category: -1
- molecule: "O=C1c2cccc(O)c2C(=O)c2c(O)cc(CO)cc21"
  system.under.test: "Cellular tumor antigen p53 (Homo sapiens)"
  category: -1
- molecule: "c1c[nH]cn1"
  system.under.test: "Cellular tumor antigen p53 (Homo sapiens)"
  category: -1

Would you mind telling me which call this test gave CC(C)=CCCC(C)C=O (stereo not drawn) ?
-1

Would you mind telling me which call this test gave O=C(O)CC(C(=O)O)C(CC(=O)O)C(=O)O (stereo not drawn) ?
-1

Would you mind telling me which call this test gave `COC(=O)c1cc(Cl)ccc1[N+](=O)[O-]` ?
-1

Would you mind telling me which call this test gave `c1ccc2c(c1)ccc1cc3c(ccc4ccccc43)cc12` ?
-1

----------
- Read-out: E-selectin (Homo sapiens)
- experiment.description: BSK_LPS_Eselectin: BioMAP Diversity Plus: LPS Assay for Eselectin Biomarker Activity (AID 2283077)
- condition.context: primary human HUVEC with PBMC; actives raise or lower the signal
The source made the active and inactive calls. Rule for the calls: active = hit-call score of the fitted dose curve at least 0.9, where 1 is the maximum; inactive = score below 0.9.
Write down one outcome, taken from active, inactive

- molecule: "CN1C(=O)N(C)C(O)C1O (centres undefined)"
  category: "inactive"
- molecule: "C=CC=CC=CCCCCC"
  category: "inactive"
- molecule: "O=Nc1ccc(O)cc1"
  category: "inactive"
- molecule: "C=CCOc1c(Br)cc(Br)cc1Br"
  category: "inactive"
- molecule: "CC1OC1C1CCC2(C)OC2C1 (centres undefined)"
  category: "inactive"

Would you mind telling me which call this test gave CCCCC(CC)COCC1CO1 (centres undefined) ?
inactive
